Where do these numbers come from? They come from patent US5024994A.

Hi there, I'd appreciate the recorded inhibition at 1 µM for every entry that follows.
measuredTarget: renin (Homo sapiens)
Sequence (P00797 67-406, species assumed): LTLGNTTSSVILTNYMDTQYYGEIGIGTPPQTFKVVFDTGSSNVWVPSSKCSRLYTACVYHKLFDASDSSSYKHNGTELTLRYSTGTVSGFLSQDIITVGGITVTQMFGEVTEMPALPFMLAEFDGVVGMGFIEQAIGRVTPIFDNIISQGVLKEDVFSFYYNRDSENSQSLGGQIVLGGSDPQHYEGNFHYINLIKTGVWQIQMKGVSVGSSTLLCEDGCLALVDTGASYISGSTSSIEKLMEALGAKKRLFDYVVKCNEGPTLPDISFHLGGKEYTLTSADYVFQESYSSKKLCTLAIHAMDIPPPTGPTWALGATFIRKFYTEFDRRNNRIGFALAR
procedureText: in vitro renin inhibitory activity, radioimmunoassay for angiotensin I
Format: biochemical
testConditions: at 10^-6 molar concentration; read-out: percent inhibition of renin activity
Answers are plain numbers, in %.

Take a look at these entries with their results.
CC[C@H](C)CNC(=O)C[C@H](O)[C@H](CC(C)C)NC(=O)C(NC(=O)C(Cc1cccc2ccccc12)Cc1cccc2ccccc12)C(=O)NC (stereo partly shown)	26
CC[C@H](C)CNC(=O)C[C@H](O)[C@H](CC(C)C)NC(=O)C(NC(=O)C(Cc1cccc2ccccc12)Cc1cccc2ccccc12)C(N)=O (stereo partly shown)	24
CC(C)C[C@H](NC(=O)C[C@H](O)[C@H](CC(C)C)NC(=O)C(CCCC1CO1)NC(=O)C(Cc1cccc2ccccc12)Cc1cccc2ccccc12)C(=O)NCc1ccccc1 (single isomer, unassigned) [drawing 66]	47

// below: inhibition at 1 µM requested for another compound
query: Can you share its inhibition at 1 µM? I mean this compound: CC[C@H](C)CNC(=O)C[C@H](O)[C@H](CC(C)C)NC(=O)C(CCCCCCNC(=O)OCc1ccccc1)NC(=O)C(Cc1cccc2ccccc12)Cc1cccc2ccccc12 (stereo partly shown)
result: 28
